system: LOX IMVI; assay: NCI tumour cell line growth inhibition, 48 h
The source made the active and inactive calls. Cut-off read from the data, not from the text of the source: active = GI50 up to about 1.1 µM and inactive = higher.
endpoint_label: GI50

Enquiry: Please look at Cc1c(/N=C\c2ccc(N(CCC#N)CCC#N)cc2)c(=O)n(-c2ccccc2)n1C and tell me its recorded GI50 on LOX IMVI.
Return: > 100 µM (inactive)

Enquiry: Please look at NCCC(N)C(=O)O (stereo not given) and tell me its recorded GI50 on LOX IMVI.
Return: > 100 µM (inactive)

Enquiry: Please look at CCN(CC)CCCCC1CCN(CC(=O)N2c3ccccc3NC(=O)CC2C)CC1 (stereo not given) and tell me its recorded GI50 on LOX IMVI.
Return: 19.4 µM (inactive)

Enquiry: Please look at CC(C)=CCC[C@H](C)[C@H]1CC[C@@H](C)c2cc(O)c(C)cc21 and tell me its recorded GI50 on LOX IMVI.
Return: 16.3 µM (inactive)

Enquiry: Please look at COc1ccc2c(C)cc(N/N=C/c3sccc3C)nc2c1 and tell me its recorded GI50 on LOX IMVI.
Return: 7.59 µM (inactive)

Enquiry: Please look at CCOC(=O)C(Cc1ccc2c(c1)CCC2)Cc1ccc2c(c1)CCC2 and tell me its recorded GI50 on LOX IMVI.
Return: 20.7 µM (inactive)

Enquiry: Please look at CC(C)(C)c1ccc(-c2nc3ccc(Cl)cc3c(=O)o2)cc1 and tell me its recorded GI50 on LOX IMVI.
Return: 15.4 µM (inactive)

Enquiry: Please look at C/C(=N\O)C(CN1CCCCC1)C(c1ccccc1)c1c(O)c2ccccc2oc1=O (stereo not given) and tell me its recorded GI50 on LOX IMVI.
Return: > 100 µM (inactive)

Enquiry: Please look at O=C1Cc2c(-c3ccc(Cl)cc3)cc(-c3ccccc3)nc2-c2ccccc2N1 and tell me its recorded GI50 on LOX IMVI.
Return: 6.56 µM (inactive)

Enquiry: Please look at CC1=NN(C(=O)CC(=O)NC(=O)CC(=O)Nc2ccccc2F)C(=O)C1/N=N/c1ccc([N+](=O)[O-])cc1 (stereo not given) and tell me its recorded GI50 on LOX IMVI.
Return: 19.6 µM (inactive)

====

test system: HOP-92; assay: NCI tumour cell line growth inhibition, 48 h
The source made the active and inactive calls. No stated cut-off is given here; in the data, active = GI50 up to about 1.1 µM and inactive = higher.
For each record, write down the corresponding GI50.

Enquiry: Return GI50 for the following molecule: CCCC/C=C1\CCC(C)(CN(C)C)C1=O (stereo not given)
Return: > 100 µM (inactive)

Enquiry: Return GI50 for the following molecule: C=CC(C)(O)CCC1C(=C)C(O)CC2C(C)(C)CCCC12C (stereo not given)
Return: 17.3 µM (inactive)

Enquiry: Return GI50 for the following molecule: O=C1CSC(c2cccc([N+](=O)[O-])c2)N1c1ccc(-c2ccc(-n3c(-c4ccccc4)nc4ccccc4c3=O)cc2)cc1 (stereo not given)
Return: > 100 µM (inactive)

Enquiry: Return GI50 for the following molecule: O=C1OCCC[C@H]2O[C@@H](COCc3ccccc3)C[C@@H]12
Return: > 100 µM (inactive)

Enquiry: Return GI50 for the following molecule: COc1ccc(NC(=O)CC(=O)N2N=C(N3CCCCC3)CC2c2ccccc2)cc1 (stereo not given)
Return: 99.5 µM (inactive)

====

system: NCI-H226; experiment: NCI tumour cell line growth inhibition, 48 h
Activity calls are given as the source filed them. Cut-off read from the data, not from the text of the source: active = GI50 up to about 1.1 µM and inactive = higher. Residues, ends and D or L forms follow the SMILES beside them. Groups on a side chain read outwards from the residue. *: point of attachment. Cbz = O=C(OCc1ccccc1)*; Boc = CC(C)(C)OC(=O)*
Returns: one label drawn from active, inactive

Enquiry: So what was the verdict on CCOC(=O)c1sc2c(c1OC(=O)c1cc(OC)c(OC)c(OC)c1)c(=O)n(-c1ccccc1)c(=S)n2-c1ccccc1 in this test?
Return: inactive

Enquiry: So what was the verdict on NCS(=O)(=O)O in this test?
Return: inactive

Enquiry: So what was the verdict on CN(C)C/C=C(/c1ccc(Br)cc1)c1cccnc1 in this test?
Return: inactive

Enquiry: So what was the verdict on CC(C)S(=O)(=O)ON1C(=O)c2ccc([N+](=O)[O-])cc2C1=O in this test?
Return: inactive

Enquiry: So what was the verdict on Cc1ccnc(NC(=S)Nc2ccc([N+](=O)[O-])cc2)c1 in this test?
Return: inactive

Enquiry: So what was the verdict on COC(=O)C(Cc1ccccc1)NP(=O)(O)OCC1OC(n2cc(Br)c(=O)[nH]c2=O)CC1O (centres undefined) in this test?
Return: inactive

Enquiry: So what was the verdict on Cc1cc(C)c([S@@](=O)O[C@@H]2[C@H]3OC(C)(C)O[C@H]3O[C@@H]2[C@H]2COC(C)(C)O2)c(C)c1 in this test?
Return: inactive

Enquiry: So what was the verdict on N#Cc1sc2nc3c(c(-c4ccccc4)c2c1N)CCCC3 in this test?
Return: inactive

Enquiry: So what was the verdict on COc1cc2c(cc1OC)C(OC)N(C)c1c-2ccc2cc3c(cc12)OCO3 (centres undefined) in this test?
Return: active

Enquiry: So what was the verdict on Cc1ccc(NC(S)=Nc2c(C)n(C)n(-c3ccccc3)c2=O)cc1 in this test?
Return: inactive

Enquiry: So what was the verdict on COc1ccc(NC(=S)N/N=C(\C)c2nc3cccnc3[nH]2)cc1 in this test?
Return: inactive

Enquiry: So what was the verdict on CCOC(=O)c1csc(NC(=O)CCCC#N)n1 in this test?
Return: inactive

Enquiry: So what was the verdict on O=C(CC(C(=O)c1ccsc1)c1cccs1)c1ccccc1 (centres undefined) in this test?
Return: inactive

Enquiry: So what was the verdict on C=CCNC1=C2C[C@@H](C)C[C@H](OC)[C@H](O)[C@@H](C)/C=C(\C)[C@H](OC(N)=O)[C@@H](OC)/C=C\C=C(/C)C(=O)NC(=CC1=O)C2=O [TANESPIMYCIN] in this test?
Return: inactive

Enquiry: So what was the verdict on CCCCOC(=O)C(=O)C(CCC(=O)c1ccc(C)cc1)C(=O)C=C(C)C (centres undefined) in this test?
Return: inactive

Enquiry: So what was the verdict on Cc1c(/N=C\c2ccc(N(CCC#N)CCC#N)cc2)c(=O)n(-c2ccccc2)n1C in this test?
Return: inactive

Enquiry: So what was the verdict on O=C1c2ccccc2C(O)(O)C1(O)C1(O)C(=O)c2ccccc2C1(O)O (centres undefined) in this test?
Return: inactive

Enquiry: So what was the verdict on CN1C(=O)C(/C=N/NC(=O)c2cccnc2)C(N)N(C)C1=O (centres undefined) in this test?
Return: inactive

Enquiry: So what was the verdict on COc1ccc(/N=C/c2ccc(N(CCC#N)S(=O)(=O)c3ccccc3)cc2)cc1 in this test?
Return: inactive

Enquiry: So what was the verdict on O=C(CC(C(=O)c1ccsc1)c1cccs1)c1ccsc1 (centres undefined) in this test?
Return: inactive

Enquiry: So what was the verdict on CC(C)CC(NC(=O)OCc1ccccc1)C(=O)NCCCCC(NC(=O)C(CCCCNC(=O)C(CC(C)C)NC(=O)OCc1ccccc1)NC(=O)C(CCCCNC(=O)C(CC(C)C)NC(=O)OCc1ccccc1)NC(=O)C(CCCCNC(=O)C(CC(C)C)NC(=O)OCc1ccccc1)NC(=O)OC(C)(C)C)C(=O)O (centres undefined) (Boc-K([Leu-Cbz])K([Leu-Cbz])K([Leu-Cbz])K([Leu-Cbz])-OH; configuration not given here) in this test?
Return: inactive

Enquiry: So what was the verdict on CC1(C)C2CCC3(OCCO3)C1C(O)C2 (centres undefined) in this test?
Return: inactive

Enquiry: So what was the verdict on Cn1c(COC(=O)Nc2ccccc2)c(COC(=O)Nc2ccccc2)c2ccc3cc(Cl)c(Cl)cc3c21 in this test?
Return: inactive

Enquiry: So what was the verdict on CN(C)CCC(=O)/C=C\c1ccccc1 in this test?
Return: inactive

Enquiry: So what was the verdict on O=c1nc2sc3ccc4ccccc4c3n2nc1O in this test?
Return: inactive

Enquiry: So what was the verdict on Cc1c(C)c2cc3c(=O)ccoc3c(C)c2oc1=O in this test?
Return: inactive

Enquiry: So what was the verdict on CC(C)C1CC(CO)(CNc2nc(N)nc(Cl)c2/C=N\O)C1 (centres undefined) in this test?
Return: inactive

Enquiry: So what was the verdict on CC(C)(C)OC(=O)/C=C/[C@@H](CCC(=O)/C=C/[C@H](/C=C\CCCC(=O)O)NC1(c2ccccc2)c2ccccc2-c2ccccc21)O[Si](C)(C)C(C)(C)C in this test?
Return: inactive

Enquiry: So what was the verdict on CC(=O)Nc1ccc(-c2nc3ccccc3s2)cc1Cl in this test?
Return: active

Enquiry: So what was the verdict on COC(=O)CCC(C)C1CCC2C3C(C[C@H](OC(C)=O)[C@]12C)[C@@]1(C)CCC2(C[C@H]1C[C@H]3OC(C)=O)OOC1(CC[C@]3(C)C4C[C@H](OC(C)=O)[C@]5(C)C(C(C)CCC(=O)OC)CCC5C4[C@H](OC(C)=O)C[C@@H]3C1)OO2 (some centres undefined) in this test?
Return: inactive

Enquiry: So what was the verdict on O=C(O)\C=C/C=C/C=C/C=C/C(=O)O in this test?
Return: inactive

Enquiry: So what was the verdict on CC[C@H](C)[C@H]1NC(=O)[C@@H](NC(=O)[C@@H](CC(C)C)N(C)CC2CCCN2C(=O)C(C)=O)[C@@H](C)OC(=O)[C@H](Cc2ccc(OC)cc2)N(C)C(=O)C2CCCN2C(=O)[C@H](CC(C)C)NC(=O)[C@@H](C)C(=O)[C@H](C(C)C)OC(=O)C[C@@H]1O (some centres undefined) in this test?
Return: active

Enquiry: So what was the verdict on O=C(/C=C1\C[C@H]2C=Nc3ccccc3C(=O)N2C1)NCCCNC(=O)/C=C1\C[C@H]2C=Nc3ccccc3C(=O)N2C1 in this test?
Return: inactive

Enquiry: So what was the verdict on N#Cc1cnc(N)nc1NCC1(CO)CC(CCc2ccccc2)C1 (centres undefined) in this test?
Return: inactive
